The origin of these recorded values is patent US20240391936A1.

# Lookup of reported Ki keyed by entry
# target_of_assay: DDR1 (Homo sapiens, UniProt Q08345)
# Sequence (Q08345 19-913): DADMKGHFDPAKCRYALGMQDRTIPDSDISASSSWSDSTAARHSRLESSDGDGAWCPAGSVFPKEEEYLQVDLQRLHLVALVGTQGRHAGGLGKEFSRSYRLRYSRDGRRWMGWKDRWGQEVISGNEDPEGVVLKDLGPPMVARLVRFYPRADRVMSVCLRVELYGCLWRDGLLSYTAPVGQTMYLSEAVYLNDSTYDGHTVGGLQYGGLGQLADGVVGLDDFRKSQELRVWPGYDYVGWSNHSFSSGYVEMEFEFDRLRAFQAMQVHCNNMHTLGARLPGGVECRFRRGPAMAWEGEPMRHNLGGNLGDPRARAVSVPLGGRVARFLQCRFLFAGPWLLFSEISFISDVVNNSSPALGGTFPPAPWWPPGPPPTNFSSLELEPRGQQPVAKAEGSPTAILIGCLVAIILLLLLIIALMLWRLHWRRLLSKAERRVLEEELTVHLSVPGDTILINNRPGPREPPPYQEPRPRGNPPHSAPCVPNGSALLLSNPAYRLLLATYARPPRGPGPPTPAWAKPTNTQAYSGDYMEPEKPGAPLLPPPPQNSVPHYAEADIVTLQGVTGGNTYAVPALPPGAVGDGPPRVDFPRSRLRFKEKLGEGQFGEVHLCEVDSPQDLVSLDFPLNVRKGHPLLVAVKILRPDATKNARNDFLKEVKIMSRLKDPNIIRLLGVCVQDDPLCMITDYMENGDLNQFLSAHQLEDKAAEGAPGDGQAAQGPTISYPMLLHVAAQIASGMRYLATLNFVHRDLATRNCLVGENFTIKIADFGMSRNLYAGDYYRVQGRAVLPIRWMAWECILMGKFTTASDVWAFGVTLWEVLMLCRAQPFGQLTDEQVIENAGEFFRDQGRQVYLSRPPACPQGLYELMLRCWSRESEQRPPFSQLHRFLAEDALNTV
# test_summary: DDR1 binding assay (LanthaScreen Europium Kinase Binding assay)
# Design: purchased Carna Biosciences
# run_conditions: binding assay, 5 nM DDR1, 20 nM Kinase Tracer 178; Ki from IC50 by Cheng-Prusoff; read-out: Ki DDR1

See these solved cases before continuing.
- cpd_smiles: "O=C(Nc1cccc(C(F)(F)F)c1)c1csc2c1CCN(Cc1cnc3[nH]ncc3c1)C2"
  assay_metric: "Ki"
  result: "< 25 nM"
- cpd_smiles: "O=C(Nc1cccc(C(F)(F)F)c1)c1csc2c1CCN(C(=O)c1cnc3cnccn13)C2"
  assay_metric: "Ki"
  result: "< 25 nM"
- cpd_smiles: "CC(C)(C)c1cc(NC(=O)c2csc3c2CCN(C(=O)c2cnc4n2CCOC4)C3)on1"
  assay_metric: "Ki"
  result: "< 25 nM"

Any idea what Ki was measured for Cc1cccc2ncc(C(=O)N3CCc4c(C(=O)Nc5cc(CN6CC[C@@H](N(C)C)C6)cc(C(F)(F)F)c5)csc4C3)n12 ?
< 25 nM

Also CC(C)(C)c1cncc(NC(=O)c2csc3c2CCN(C(=O)c2cnc4ccccn24)C3)c1 , if possible.
< 25 nM

Also CN(C)[C@@H]1CCN(Cc2cc(NC(=O)c3csc4c3CCN(Cc3cnc5cnccn35)C4)cc(C(F)(F)F)c2)C1 , if possible.
< 25 nM

Also O=C(Nc1cccc(C(F)(F)F)c1)c1csc2c1CCN(Cc1cnc3cnccn13)C2 , if possible.
< 25 nM

* * *

# target_of_assay: DDR1 (Homo sapiens, UniProt Q08345)
# test_summary: DDR1 cell based assay (PathHunter U2OS DDR1 assay)
# Design: host or cells: U2OS-DDR1 (PathHunter)
# run_conditions: U2OS-DDR1 cells, bovine Type II Collagen 20 μg/ml
assay_metric: IC50

See these solved cases before continuing.
- compound: "CC(C)Cc1cc(NC(=O)c2csc3c2CCN(C(=O)c2cnn4ccncc24)C3)on1"
  target_of_assay: "DDR1 (Homo sapiens, UniProt Q08345)"
  result: "50 to 80 nM"
- compound: "O=C(Nc1cccc(C(F)(F)F)c1)c1csc2c1CCN(C(=O)c1cnc3ccccn13)C2"
  target_of_assay: "DDR1 (Homo sapiens, UniProt Q08345)"
  result: "< 25 nM"
- compound: "CN1CCC(Oc2cc(NC(=O)c3csc4c3CCN(C(=O)c3cnc5ccccn35)C4)cc(C(F)(F)F)c2)C1 (stereo not drawn)"
  target_of_assay: "DDR1 (Homo sapiens, UniProt Q08345)"
  result: "50 to 80 nM"

Entry O=C(Nc1cc(OCCN2CCCC2)cc(C(F)(F)F)c1)c1csc2c1CCN(Cc1cnc3[nH]ncc3c1)C2 , system DDR1 (Homo sapiens, UniProt Q08345): what IC50 was measured?
< 25 nM

Also O=C(Nc1cccc(OC(F)(F)F)c1)c1csc2c1CCN(C(=O)c1cnc3ccccn13)C2 , if possible.
< 25 nM

Also CC1c2scc(C(=O)Nc3cccc(C(F)(F)F)c3)c2CCN1Cc1cnc2[nH]ccc2c1 (single isomer, unassigned) , if possible.
< 25 nM

Also O=C(Nc1cncc(C(F)(F)F)c1)c1csc2c1CCN(C(=O)c1cnc3n1CCCC3)C2 , if possible.
50 to 80 nM

Also CC(C)(c1cc(NC(=O)c2csc3c2CCN(C(=O)c2cnc4ccccn24)C3)no1)C(F)(F)F , if possible.
< 25 nM

* * *

# target_of_assay: DDR2 (Homo sapiens)
# test_summary: DDR2 binding assay (LanthaScreen Europium Kinase Binding assay)
# Parameters: purchased Life Technologies
# run_conditions: 5 nM DDR2, 10 nM Kinase Tracer 178, 1 hour at room temperature; IC50 converted in Ki using the Cheng-Prusoff equation; read-out: DDR2 Ki
assay_metric: Ki (nM)

P = CN1CCN(Cc2cc(NC(=O)c3cc4c(s3)CCN(C(=O)c3cnc5ccccn35)C4)cc(C(F)(F)F)c2)CC1 [Example C2]
Q = CN1CCN(Cc2cc(NC(=O)c3cc4c(s3)CN(C(=O)c3cnc5ccccn35)CC4)cc(C(F)(F)F)c2)CC1 [Example C1]
Looking at P and Q , which one comes out lower in Ki terms? Your answer should be the label of the entry you select.
P
(P: 160 nM, Q: 531 nM)

* * *

# target_of_assay: DDR1 (Homo sapiens, UniProt Q08345)
pIC50: −log10 of the molar value.
# Lookup of reported pIC50 keyed by entry

- compound: "CN1CCC(Oc2ccc(NC(=O)c3csc4c3CCN(C(=O)c3cnc5ccccn35)C4)cc2C(F)(F)F)C1 (stereo not shown)"
  assay_metric: "pIC50"
  result: "7.10 to 7.30"

Entry Cc1n[nH]c2ncc(CN3CCc4c(C(=O)Nc5cc(OCCN6CCCC6)cc(C(F)(F)F)c5)csc4C3)cc12 , system DDR1 (Homo sapiens, UniProt Q08345): what pIC50 was measured?
> 7.60

Also O=C(Nc1cccc(C(F)(F)F)c1)c1csc2c1CCN(C(=O)c1cnc3cc(OCCN4CCOCC4)ccn13)C2 , if possible.
7.30 to 7.60

* * *

# target_of_assay: DDR2 (Homo sapiens, UniProt Q16832)
# test_summary: DDR2 binding assay (LanthaScreen Europium Kinase Binding assay)
# Design: purchased Life Technologies
# run_conditions: binding assay, 5 nM DDR2, 10 nM Kinase Tracer 178; Ki from IC50 by Cheng-Prusoff; read-out: Ki DDR2
pKi: −log10 of the molar value.
# Lookup of reported pKi keyed by entry

See these solved cases before continuing.
- cpd_smiles: "COc1ccc(NC(=O)c2csc3c2CCN(Cc2cnc4[nH]ccc4c2)C3)cc1C(F)(F)F"
  pKi: "> 7.60"
- cpd_smiles: "CN(C)CCOc1cc(NC(=O)c2csc3c2CCN(C(=O)c2cnc4ccccn24)C3)cc(C(F)(F)F)c1"
  pKi: "> 7.60"
- cpd_smiles: "O=C(Nc1cncc(C(F)(F)F)c1)c1csc2c1CCN(C(=O)c1cnn3ccsc13)C2"
  pKi: "> 7.60"
- cpd_smiles: "CN(C)[C@H]1CCN(Cc2cc(NC(=O)c3csc4c3CCN(C(=O)c3cnc5ccccn35)C4)cc(C(F)(F)F)c2)C1"
  pKi: "> 7.60"
- cpd_smiles: "O=C(Nc1cc(C(F)(F)F)ncn1)c1csc2c1CCN(C(=O)c1cnc3ccccn13)C2"
  pKi: "> 7.60"
- cpd_smiles: "CC(C)(C)c1cc(NC(=O)c2csc3c2CCN(C(=O)c2cnc4ccccn24)C3)ccn1"
  pKi: "> 7.60"

Entry Cc1ccc2ncc(C(=O)N3CCc4c(C(=O)Nc5cc(C(C)(C)C)nn5C)csc4C3)n2c1 , system DDR2 (Homo sapiens, UniProt Q16832): what pKi was measured?
> 7.60

* * *

# Lookup of reported Ki keyed by entry
# target_of_assay: DDR2 (Homo sapiens)
# Sequence (Q16832 22-855): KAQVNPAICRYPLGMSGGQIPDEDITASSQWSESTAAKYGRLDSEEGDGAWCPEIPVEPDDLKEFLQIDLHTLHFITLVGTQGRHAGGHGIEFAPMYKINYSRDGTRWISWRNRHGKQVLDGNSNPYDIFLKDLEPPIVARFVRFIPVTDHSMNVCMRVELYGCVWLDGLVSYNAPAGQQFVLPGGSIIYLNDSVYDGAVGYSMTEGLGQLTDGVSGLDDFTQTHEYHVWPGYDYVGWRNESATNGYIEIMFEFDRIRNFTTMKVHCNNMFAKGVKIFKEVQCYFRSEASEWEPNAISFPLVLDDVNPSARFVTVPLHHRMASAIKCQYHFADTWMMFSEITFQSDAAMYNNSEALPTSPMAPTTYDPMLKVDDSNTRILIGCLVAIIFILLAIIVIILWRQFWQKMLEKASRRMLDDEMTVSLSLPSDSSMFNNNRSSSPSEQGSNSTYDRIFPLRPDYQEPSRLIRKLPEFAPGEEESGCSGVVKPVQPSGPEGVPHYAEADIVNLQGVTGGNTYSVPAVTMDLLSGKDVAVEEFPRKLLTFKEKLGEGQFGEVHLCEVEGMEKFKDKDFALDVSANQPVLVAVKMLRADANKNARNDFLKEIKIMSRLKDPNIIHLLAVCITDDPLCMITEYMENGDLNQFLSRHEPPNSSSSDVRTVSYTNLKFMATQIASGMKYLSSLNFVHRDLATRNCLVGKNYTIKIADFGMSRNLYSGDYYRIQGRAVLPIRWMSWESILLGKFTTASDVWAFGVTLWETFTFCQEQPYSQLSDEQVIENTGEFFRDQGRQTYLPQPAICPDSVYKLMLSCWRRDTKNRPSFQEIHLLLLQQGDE
# test_summary: DDR2 binding assay (LanthaScreen Europium Kinase Binding assay)
# Parameters: purchased Life Technologies
# run_conditions: binding assay, 5 nM DDR2, 10 nM Kinase Tracer 178; Ki from IC50 by Cheng-Prusoff; read-out: Ki DDR2

See these solved cases before continuing.
- compound: "CN1CCN(c2ccc3ncc(C(=O)N4CCc5c(C(=O)Nc6cncc(C(F)(F)F)c6)csc5C4)n3c2)CC1 [Example 165]"
  result: "< 25 nM"
- compound: "O=C(Nc1cc(N2CCOCC2)cc(C(F)(F)F)c1)c1csc2c1CCN(C(=O)c1cnc3ccccn13)C2 [Example 181]"
  result: "< 25 nM"
- compound: "O=C(Nc1cncc(C(F)(F)F)c1)c1csc2c1CCN(C(=O)c1cnn3ccccc13)C2 [Example 124]"
  result: "< 25 nM"
- compound: "CCC(C)(C)c1cc(NC(=O)c2csc3c2CCN(C(=O)c2cnc4ccccn24)C3)on1 [Example 119]"
  result: "< 25 nM"
- compound: "Cn1nc(C(C)(C)C)cc1NC(=O)c1csc2c1CCN(Cc1cnc3[nH]ncc3c1)C2 [Example 77]"
  result: "< 25 nM"

Entry N#Cc1cc(NC(=O)c2csc3c2CCN(C(=O)c2cnc4ccccn24)C3)cc(C(F)(F)F)c1 [Example 131] , system DDR2 (Homo sapiens): what Ki was measured?
< 25 nM

Also O=C(Nc1cncc(C(F)(F)F)c1)c1csc2c1CCN(C(=O)c1cnc3cc(F)ccn13)C2 [Example 144] , if possible.
< 25 nM

Also COCCN(C)Cc1cc(NC(=O)c2csc3c2CCN(C(=O)c2cnc4ccccn24)C3)cc(C(F)(F)F)c1 [Example 61] , if possible.
< 25 nM
